Test system: Calf thymus DNA
TEST DETAILS: Binding affinity to calf thymus DNA assessed as change in melting temperature at compound to calf thymus DNA polynucleotide ratio of 0.1 by spectrophotometric analysis
Format: nucleic-acid assay
COND: Bos taurus
REPORTED PROPERTY: ΔTm (°C)

A = Cl.Cl.c1cc2[nH]c(-c3ccc(Cn4cc(COCc5cn(Cc6ccc(-c7nc8cc(C9=NCCN9)ccc8[nH]7)o6)nn5)nn4)o3)nc2cc1C1=NCCN1
B = CC(C)NC(=N)c1ccc2[nH]c(-c3ccc(Cn4cc(COc5ccc(OCc6cn(Cc7ccc(-c8nc9cc(C(=N)NC(C)C)ccc9[nH]8)o7)nn6)cc5)nn4)o3)nc2c1.Cl.Cl
C = c1ccc2[nH]c(-c3ccc(Cn4cc(COc5ccc(OCc6cn(Cc7ccc(-c8nc9ccccc9[nH]8)o7)nn6)cc5)nn4)o3)nc2c1
Give the order of the entries above, sorted from least to greatest ΔTm. List the labels in the requested order.
C, B, A

a = Clc1ccc2[nH]c(-c3ccc(Cn4cc(COc5ccc(OCc6cn(Cc7ccc(-c8nc9cc(Cl)ccc9[nH]8)o7)nn6)cc5)nn4)o3)nc2c1
b = Cl.Cl.c1cc2[nH]c(-c3ccc(Cn4cc(CCCc5cn(Cc6ccc(-c7nc8cc(C9=NCCN9)ccc8[nH]7)o6)nn5)nn4)o3)nc2cc1C1=NCCN1
Between a and b , which one shows the larger ΔTm value? // caller expects the label of the chosen entry
b
(b: 13.5 °C, a: 0.7 °C)
